# Assayed system: Streptavidin (Streptomyces avidinii)
# Protocol notes: streptavidin binders on small-molecule microarray, primary screen, artefact control for SMM compound annotation, biophysical, 635/667 nm fluorescence (AID 1147);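 further: signal reflects streptavidin binding to arrayed compounds as a control protein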
# Cond: streptavidin binding, higher = more signal
# composite z-score binned as low bin: < -0.2; mid bin: ≥ -0.2 and < 0.4; high bin: ≥ 0.4

{"columns": ["Compound", "Assayed system", "Label class"],
 "data": [
  ["CCOC(=O)[C@H](CC(C)C)NC(=O)CCC1CC(OC(=O)NCc2ccc3c(c2)OCO3)CC2(CCCC(COC(=O)NCCOC)O2)O1 (stereo partly drawn)", "Streptavidin (Streptomyces avidinii)", "mid bin"],
  ["COC(=O)[C@@H]1CC[C@H](C)[C@@H](c2ccc(Br)cc2)N1C[C@H](O)CN=[N+]=[N-]", "Streptavidin (Streptomyces avidinii)", "mid bin"],
  ["COC(=O)CC=C[C@@H](C)[C@@H](C=NOC[C@@H](C)[C@H](OCc1ccccc1)C(C)C)OC", "Streptavidin (Streptomyces avidinii)", "low bin"],
  ["CC(C)CN1CCc2nc(-c3ccccc3)c3c(c2C1)CO[C@@H](C)C3", "Streptavidin (Streptomyces avidinii)", "mid bin"],
  ["CCN1C(=O)[C@H]2[C@H]3[C@H](O)[C@H](O)CC(=NOCC=C(C)CCC=C(C)C)[C@@H]3CC[C@H]2C1=O", "Streptavidin (Streptomyces avidinii)", "low bin"],
  ["O=C1[C@H]2[C@H]3[C@H](O)[C@H](O)CC(=NOC[C@@H](O)COCc4ccco4)[C@@H]3CC[C@H]2C(=O)N1Cc1ccc2c(c1)OCO2", "Streptavidin (Streptomyces avidinii)", "low bin"],
  ["CO[C@H]1C[C@@H]2C[C@H](O)CC(CC(=O)O[C@@H](C=CCC(C)C)C[C@@H]3CC[C@H](C)[C@@H](C1)O3)O2", "Streptavidin (Streptomyces avidinii)", "high bin"],
  ["COC(=O)[C@H](C)NC(=O)CCC1CC(OC(=O)NCCc2ccc(F)cc2)CC2(CCCC(COC(=O)NCc3ccccc3)O2)O1 (stereo partly drawn)", "Streptavidin (Streptomyces avidinii)", "high bin"],
  ["CC(C)=NOC[C@@H](O)[C@H]1O[C@@H]2OC(C)(C)O[C@@H]2[C@H]1O", "Streptavidin (Streptomyces avidinii)", "high bin"],
  ["COC(=O)[C@@H]1CC[C@H](C)[C@@H](c2ccc(C)cc2)N1C(=O)c1ccc(C=NOC[C@H]2O[C@H](c3ccccc3)C=C[C@@H]2Oc2ccc(OC)cc2)cc1", "Streptavidin (Streptomyces avidinii)", "low bin"],
  ["O=C1C2=CC[C@H]3C(=O)N(c4ccc(F)cc4F)C(=O)[C@H]3[C@H]2[C@H](O)[C@@H]2O[C@H]12", "Streptavidin (Streptomyces avidinii)", "high bin"],
  ["COc1ccc(COC(=O)NN=C2C[C@@H](O)[C@@H](O)[C@@H]3[C@@H]4C(=O)N(C[C@@H]5CCCO5)C(=O)[C@@H]4CC[C@H]23)cc1", "Streptavidin (Streptomyces avidinii)", "high bin"],
  ["CC(=O)OC[C@H]1O[C@@H](ON=C(C)CCN2CCCCc3nc(C)c(C)cc32)[C@H](OC(C)=O)[C@@H](OC(C)=O)[C@@H]1OC(C)=O", "Streptavidin (Streptomyces avidinii)", "low bin"],
  ["CCOC(=O)[C@H](CC(C)C)NC(=O)CCC1CC(OC(=O)NCCc2ccc(F)cc2)CC2(CCCC(COC(=O)NCCOC)O2)O1 (stereo partly drawn)", "Streptavidin (Streptomyces avidinii)", "high bin"],
  ["CC(C)=NOC(C)CN1CCCCc2nc(C)c(C)cc21 (stereo not drawn)", "Streptavidin (Streptomyces avidinii)", "low bin"],
  ["Cc1ccc(S(=O)(=O)N[C@@H]2COC(=O)CC=C[C@@H](C)[C@H](NS(=O)(=O)c3ccc(C)cc3)COC(=O)[C@H](C)NC(=O)CC=C[C@H]2C)cc1", "Streptavidin (Streptomyces avidinii)", "low bin"],
  ["CCOC(=O)CCN1C(=O)[C@H]2[C@H]3[C@H](O)[C@H](O)CC(=NOCC=C(C)CCC=C(C)C)[C@H]3CC[C@H]2C1=O", "Streptavidin (Streptomyces avidinii)", "mid bin"],
  ["CC(C)[C@@H](OCc1ccccc1)[C@H](C)C=NO[C@@H](C)c1cn([C@H](CO)Cc2ccccc2)nn1", "Streptavidin (Streptomyces avidinii)", "mid bin"],
  ["COC(=O)[C@@H]1CC[C@H](C)[C@@H](c2ccc(C)cc2)N1C(=O)c1ccc(C=NO[C@@H](C)c2cc(-c3c(C)cc(C)cc3C)no2)cc1", "Streptavidin (Streptomyces avidinii)", "mid bin"],
  ["CC(C)CON=C1C[C@@H](O)[C@@H](O)[C@@H]2[C@@H]3C(=O)N(c4ccc(F)cc4F)C(=O)[C@@H]3CC[C@@H]12", "Streptavidin (Streptomyces avidinii)", "high bin"],
  ["O=C1[C@H]2[C@H]3[C@H](O)[C@H](O)CC(=NOC[C@@H](O)COCc4ccco4)[C@@H]3CC[C@H]2C(=O)N1C1CCCCC1", "Streptavidin (Streptomyces avidinii)", "low bin"],
  ["O=C1[C@H]2[C@H]3[C@H](O)[C@H](O)CC(=NOCc4ccccc4)[C@H]3CC[C@H]2C(=O)N1C1CCCCC1", "Streptavidin (Streptomyces avidinii)", "high bin"],
  ["O=C1C[C@@H](O)[C@@H](O)[C@@H]2[C@@H]3C(=O)N(C4CCCCC4)C(=O)[C@@H]3CC[C@@H]12", "Streptavidin (Streptomyces avidinii)", "mid bin"]
]}
